Biological target: Vasopressin V2 receptor (Homo sapiens)
Measurement Type: Ki (nM)

Cc1cc(C(=O)N2CCCCc3ccccc32)ccc1CNC(=O)N1CCC[C@H]1C(=O)N(C)C 2000

----------
Molecular target: Vasopressin V2 receptor (Rattus norvegicus, UniProt Q00788)
Sequence (Q00788 whole entry): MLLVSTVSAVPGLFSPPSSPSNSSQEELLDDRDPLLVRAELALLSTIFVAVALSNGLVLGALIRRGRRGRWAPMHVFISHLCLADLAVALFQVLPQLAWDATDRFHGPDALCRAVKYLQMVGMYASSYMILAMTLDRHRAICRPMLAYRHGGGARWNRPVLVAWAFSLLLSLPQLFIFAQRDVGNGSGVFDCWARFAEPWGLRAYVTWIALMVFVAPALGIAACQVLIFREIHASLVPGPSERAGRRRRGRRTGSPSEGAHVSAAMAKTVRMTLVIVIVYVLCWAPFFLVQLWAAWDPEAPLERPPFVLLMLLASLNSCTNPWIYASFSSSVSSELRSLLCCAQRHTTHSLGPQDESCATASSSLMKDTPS
Test: Agonist activity at rat vasopressin V2 receptor expressed in HEK293 cells assessed as increase in intracellular cAMP level by CRE-luciferase reporter gene assay
pEC50: −log10 of the molar value.
Measured pEC50 values are reported for all entries that follow.

Molecule	pEC50
Cc1cc(C(=O)N2CCCCc3ccccc32)ccc1CNC(=O)NCC(=O)N(C)C	7.30
Cc1cc(C(=O)N2CCCCc3ccccc32)ccc1CNC(=O)N1C[C@H](O)C[C@H]1C(=O)N(C)C	7.39
CCO[C@@H]1C[C@@H](C(=O)N(C)C)N(C(=O)NCc2ccc(C(=O)N3CCCCc4ccccc43)cc2C)C1	7.82
Cc1cc(C(=O)N2CCCCc3ccccc32)ccc1CNC(=O)N1CCC[C@H]1C(=O)N(C)C [FEDOVAPAGON]	6.82
Cc1cc(C(=O)N2CCCCc3ccccc32)ccc1CNC(=O)Nc1c(F)cccc1F	7.89
CO[C@@H]1C[C@@H](C(=O)N(C)C)N(C(=O)NCc2ccc(C(=O)N3CCCCc4ccccc43)cc2C)C1	7.19

----------
Target: UniProt P30518
Assay: Agonist activity at human vasopressin V2 receptor expressed in HEK293 cells assessed as increase in intracellular cAMP level by CRE-luciferase reporter gene assay
Measurement Type: EC50

Molecule	Measurement Type	Experimental Result
Cc1cc(C(=O)N2CCCCc3ccccc32)ccc1CNC(=O)NCC(=O)N(C)C	EC50	58 nM
Cc1cc(C(=O)N2CCCCc3ccccc32)cc(C)c1CNC(=O)Nc1c(F)cccc1F	EC50	82 nM
O=C(NCc1ccc(C(=O)N2CCCCc3ccccc32)cc1)Nc1c(F)cccc1F	EC50	47 nM
Cc1cc(C(=O)N2CCCCc3ccccc32)ccc1CNC(=O)N1C[C@H](OCc2ccccc2)C[C@H]1C(=O)N(C)C	EC50	10 nM
Cc1cc(C(=O)N2CCCCc3ccccc32)ccc1CNC(=O)Nc1ccc[nH]c1=O	EC50	140 nM
Cc1cc(C(=O)N2CCCCc3ccccc32)ccc1CNC(=O)Nc1c(F)cccc1F	EC50	2.1 nM
Cc1cc(C(=O)N2CCCCc3ccccc32)ccc1CNC(=O)N1CC(F)(F)C[C@H]1C(=O)N(C)C	EC50	50 nM
Cc1cc(C(=O)N2CCCCc3ccccc32)ccc1CNC(=O)NCC(=O)Oc1ccccc1	EC50	820 nM
Cc1cc(C(=O)N2CCCC(O)c3ccccc32)ccc1CNC(=O)N1CCC[C@H]1C(=O)N(C)C (some centres undefined)	EC50	230 nM

----------
Tested on: Rattus norvegicus
Test: Antidiuretic effect in Long-Evans Brattleboro rat model assessed as inhibition of urine production at 1 mg/kg, po after 1 hr relative to control
Format: functional
Measurement Type: inhibition in vivo at 1 mg/kg (%)

Cc1cc(C(=O)N2CCCCc3ccccc32)ccc1CNC(=O)Nc1c(F)cccc1F 0
Cc1cc(C(=O)N2CCCCc3ccccc32)ccc1CNC(=O)NCC(=O)N(C)C 82
Cc1cc(C(=O)N2CCCCc3ccccc32)ccc1CNC(=O)N1CCC[C@H]1C(=O)N(C)C 81
CO[C@@H]1C[C@@H](C(=O)N(C)C)N(C(=O)NCc2ccc(C(=O)N3CCCCc4ccccc43)cc2C)C1 84
CCO[C@@H]1C[C@@H](C(=O)N(C)C)N(C(=O)NCc2ccc(C(=O)N3CCCCc4ccccc43)cc2C)C1 60
Cc1cc(C(=O)N2CCCCc3ccccc32)ccc1CNC(=O)N1C[C@H](O)C[C@H]1C(=O)N(C)C 68

----------
Assay: Aqueous solubility of the compound
Assay type: physicochemical
Conditions: water (aqueous)
Measurement Type: solubility (µg/mL)

Cc1cc(C(=O)N2CCCCc3ccccc32)ccc1CNC(=O)NCC(=O)N(C)C 177

----------
Let's look at some molecules and their measured log10(EC50).
Target: Vasopressin V2 receptor (Homo sapiens, UniProt P30518)
Sequence (P30518 whole entry): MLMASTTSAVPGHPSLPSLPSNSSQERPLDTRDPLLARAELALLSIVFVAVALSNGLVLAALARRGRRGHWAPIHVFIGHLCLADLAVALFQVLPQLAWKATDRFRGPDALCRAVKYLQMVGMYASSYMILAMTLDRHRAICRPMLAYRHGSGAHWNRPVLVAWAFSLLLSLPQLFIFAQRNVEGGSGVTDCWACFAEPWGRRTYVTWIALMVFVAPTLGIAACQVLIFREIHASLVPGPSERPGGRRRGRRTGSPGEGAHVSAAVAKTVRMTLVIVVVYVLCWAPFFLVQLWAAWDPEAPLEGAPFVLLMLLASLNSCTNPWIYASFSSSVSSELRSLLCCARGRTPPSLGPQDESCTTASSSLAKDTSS
Experiment: Agonist activity at human vasopressin V2 receptor expressed in HEK293 cells assessed as increase in intracellular cAMP level by CRE-luciferase reporter gene assay
Measurement Type: log10(EC50) (log10 of the value in nM)

Cc1cc(C(=O)N2CCCCc3ccccc32)ccc1CNC(=O)NCC(=O)N1CCCC1 2.00
Cc1cc(C(=O)N2CCCCc3ccccc32)ccc1CNC(=O)NCC(=O)NCc1ccccc1 2.43
COC(=O)CNC(=O)NCc1ccc(C(=O)N2CCCCc3ccccc32)cc1C 1.57
Cc1cc(C(=O)N2CCCCc3ccccc32)ccc1CNC(=O)NCC(=O)OCc1ccccc1 2.86
CCOC(=O)CNC(=O)NCc1ccc(C(=O)N2CCCCc3ccccc32)cc1C 2.15
